- System: NCI/ADR-RES
- protocolText: NCI tumour cell line growth inhibition, 48 h
Calls of active or inactive are those of the source. No stated cut-off is given here; in the data, active = GI50 up to about 1.1 µM and inactive = higher.
Labels: 1 for active, 0 for inactive

| compound | assignedCategory |
| --- | --- |
| CN(Cc1cnc2nc(N)nc(N)c2n1)c1ccc(C(=O)NC(CCS(=O)(=O)O)C(=O)O)cc1 (stereo not given) | 0 |
| Oc1cc(-c2cccc(OC(F)(F)F)c2)nc2ccc(N3CCCC3)cc12 | 1 |
| COc1cc(/C=C2\CC3C4CC=C5C[C@@H](O)CC[C@]5(C)C4CC[C@]3(C)\C2=N\O)cc(OC)c1OC (stereo not given in full) | 0 |
| Oc1ccc(Br)cc1/C=N/C1CCCCC1 | 0 |
| Cc1cccc(N2C(=O)C3c4[nH]c5ccccc5c4C4CCC(C(C)(C)C)CC4C3C2=O)c1 (stereo not given) | 0 |
| O=C(O)COc1cc(-c2ccccc2F)nc2cc3c(cc12)OCO3 | 0 |
| N#CC12CC=C(c3ccccc3)N=C1NC(c1ccccc1)=CC2 (stereo not given) | 0 |
| NNC(=O)Nc1cccnc1 | 0 |
| COc1cccc(C2SCC(=O)N2c2ccc(-c3ccc(-n4c(-c5ccccc5)nc5ccccc5c4=O)cc3)cc2)c1OC (stereo not given) | 0 |
| COC(=O)c1ccccc1/C=C1/Cc2cccc(C)c2C1=O | 0 |
